Entry source: paper PMC9229991

Tested on: T. b. brucei
experiment_description: Antitrypanosomal activity, ATPlite assay
Format: cell-based, Trypanosoma brucei brucei
details: Trypanosoma brucei, 24 h
pEC50: −log10 of the molar value.
List of pEC50 values.

# molecule, pEC50
rows = [
    ("COC(=O)/C=C/[C@H](CCc1ccccc1)NC(=O)[C@H](Cc1ccccc1)NC(=O)c1ccc(F)cc1 [SPR34]", 4.80),
    ("COC(=O)/C=C/[C@H](CCc1ccccc1)NC(=O)[C@H](Cc1ccccc1)NCc1ccc(F)cc1F [SPR16]", 5.06),
    ("COC(=O)/C=C/[C@H](CCc1ccccc1)NC(=O)[C@H](Cc1ccccc1)NCc1c(F)cccc1F [SPR18]", 5.15),
]

* * *

List of pKi values.
target_system: rhodesain (Trypanosoma brucei rhodesiense, UniProt Q95PM0)
Construct: made in house
Sequence (Q95PM0 entry or part of it): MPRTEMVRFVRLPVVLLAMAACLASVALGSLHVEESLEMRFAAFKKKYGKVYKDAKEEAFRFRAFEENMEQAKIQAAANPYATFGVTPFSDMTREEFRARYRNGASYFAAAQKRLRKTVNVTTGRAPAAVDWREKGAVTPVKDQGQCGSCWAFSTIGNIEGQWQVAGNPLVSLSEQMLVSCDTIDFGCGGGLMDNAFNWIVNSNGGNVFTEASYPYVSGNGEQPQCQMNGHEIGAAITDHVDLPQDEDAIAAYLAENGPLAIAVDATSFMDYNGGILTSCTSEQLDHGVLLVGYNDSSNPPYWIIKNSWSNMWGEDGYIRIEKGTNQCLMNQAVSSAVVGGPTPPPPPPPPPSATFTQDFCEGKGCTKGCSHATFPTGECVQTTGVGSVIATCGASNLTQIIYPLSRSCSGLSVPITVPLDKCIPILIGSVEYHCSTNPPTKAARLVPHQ
experiment_description: Rhodesain fluorogenic enzyme assay (Cbz-Phe-Arg-AMC substrate)
Assay type: biochemical, T. b. rhodesiense
details: Cbz-Phe-Arg-AMC 10 µM, pH 5.5, Km 0.9 µM; read-out: Rhodesain Ki
pKi: −log10 of the molar value.
endpoint_name: pKi

# molecule, endpoint_value
data = [
    ("COC(=O)/C=C/[C@H](CCc1ccccc1)NC(=O)[C@H](Cc1ccccc1)NC(=O)c1ccc(F)cc1 [SPR34]", 8.24),
    ("COC(=O)/C=C/[C@H](CCc1ccccc1)NC(=O)[C@H](Cc1ccccc1)NCc1cc(F)ccc1F [SPR17]", 6.34),
    ("COC(=O)/C=C/[C@H](CCc1ccccc1)NC(=O)[C@H](Cc1ccccc1)NCc1ccccc1F [SPR13]", 5.80),
    ("COC(=O)/C=C/[C@H](CCc1ccccc1)NC(=O)[C@H](Cc1ccccc1)NCc1ccc(OC)cc1 [SPR12]", 5.32),
    ("COC(=O)/C=C/[C@H](CCc1ccccc1)NC(=O)[C@H](Cc1ccccc1)NCc1cccc(F)c1 [SPR14]", 5.90),
    ("CC(C)C[C@H](NC(=O)[C@H]1O[C@@H]1C(=O)O)C(=O)NCCCCN=C(N)N [E-64, reference compound]", 7.48),
    ("COC(=O)/C=C/[C@H](CCc1ccccc1)NC(=O)[C@H](Cc1ccccc1)NCc1ccccc1 [SPR10]", 5.25),
    ("COC(=O)/C=C/[C@H](CCc1ccccc1)NC(=O)[C@H](Cc1ccccc1)NCc1c(F)cccc1F [SPR18]", 6.68),
    ("COC(=O)/C=C/[C@H](CCc1ccccc1)NC(=O)[C@H](Cc1ccccc1)NCc1ccc([N+](=O)[O-])cc1 [SPR11]", 6.37),
    ("COC(=O)/C=C/[C@H](CCc1ccccc1)NC(=O)[C@H](Cc1ccccc1)NCc1ccc(F)cc1 [SPR15]", 5.58),
    ("COC(=O)/C=C/[C@H](CCc1ccccc1)NC(=O)[C@H](Cc1ccccc1)NCc1ccc(F)cc1F [SPR16]", 6.66),
]

* * *

target_system: rhodesain (Trypanosoma brucei rhodesiense, UniProt Q95PM0)
Construct: made in house
experiment_description: Rhodesain fluorogenic enzyme assay (Cbz-Phe-Arg-AMC substrate)
Type: biochemical, T. b. rhodesiense
details: k2nd = kinact/Ki
endpoint_name: Rhodesain k2nd (M⁻¹ min⁻¹)

# compound, endpoint_value
data = [
    ("COC(=O)/C=C/[C@H](CCc1ccccc1)NC(=O)[C@H](Cc1ccccc1)NCc1ccccc1", 1703),
    ("COC(=O)/C=C/[C@H](CCc1ccccc1)NC(=O)[C@H](Cc1ccccc1)NCc1ccccc1F", 2753),
    ("COC(=O)/C=C/[C@H](CCc1ccccc1)NC(=O)[C@H](Cc1ccccc1)NCc1ccc(OC)cc1", 1314),
    ("CC(=O)C=CC(CCc1ccccc1)NC(=O)C(Cc1ccccc1)NC(=O)c1ccc(F)cc1 (centres unmarked)", "8.384e+08"),
    ("CC(C)C[C@H](NC(=O)[C@H]1O[C@@H]1C(=O)O)C(=O)NCCCCN=C(N)N [E-64, reference compound]", 263000),
    ("COC(=O)/C=C/[C@H](CCc1ccccc1)NC(=O)[C@H](Cc1ccccc1)NCc1ccc(F)cc1", 1552),
    ("COC(=O)/C=C/[C@H](CCc1ccccc1)NC(=O)[C@H](Cc1ccccc1)NCc1cccc(F)c1", 3398),
]

* * *

List of inhibition at 100 µM values.
target_system: human Cathepsin L (hCatL) (Homo sapiens, UniProt P07711)
Sequence (P07711 114-333): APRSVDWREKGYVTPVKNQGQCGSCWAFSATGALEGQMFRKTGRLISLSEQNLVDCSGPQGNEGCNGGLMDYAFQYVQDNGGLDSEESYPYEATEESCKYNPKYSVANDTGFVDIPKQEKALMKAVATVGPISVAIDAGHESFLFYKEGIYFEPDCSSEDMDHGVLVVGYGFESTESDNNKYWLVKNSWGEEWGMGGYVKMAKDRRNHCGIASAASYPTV
experiment_description: hCatL fluorogenic enzyme assay (selectivity)
Format: biochemical
details: screening concentration 100 µM

# compound, unit_descriptor, inhibition at 100 µM
rows = [
    ("COC(=O)/C=C/[C@H](CCc1ccccc1)NC(=O)[C@H](Cc1ccccc1)NCc1cc(F)ccc1F [SPR17]", "%", 12),
    ("COC(=O)/C=C/[C@H](CCc1ccccc1)NC(=O)[C@H](Cc1ccccc1)NCc1ccccc1F [SPR13]", "%", 10),
    ("COC(=O)C=CC(CCc1ccccc1)NC(=O)C(Cc1ccccc1)NCc1ccc(C(F)(F)F)cc1 (centres unmarked) [SPR19]", "%", 45),
    ("COC(=O)/C=C/[C@H](CCc1ccccc1)NC(=O)[C@H](Cc1ccccc1)NCc1ccc(F)cc1 [SPR15]", "%", 10),
    ("COC(=O)/C=C/[C@H](CCc1ccccc1)NC(=O)[C@H](Cc1ccccc1)NCc1ccccc1 [SPR10]", "%", 16),
    ("COC(=O)/C=C/[C@H](CCc1ccccc1)NC(=O)[C@H](Cc1ccccc1)NCc1ccc(F)cc1F [SPR16]", "%", 38),
    ("COC(=O)/C=C/[C@H](CCc1ccccc1)NC(=O)[C@H](Cc1ccccc1)NCc1c(F)cccc1F [SPR18]", "%", 26),
    ("COC(=O)/C=C/[C@H](CCc1ccccc1)NC(=O)[C@H](Cc1ccccc1)NCc1cccc(F)c1 [SPR14]", "%", 35),
]

* * *

List of Rhodesain kinac values.
target_system: rhodesain (Trypanosoma brucei rhodesiense)
Construct: made in house
experiment_description: Rhodesain fluorogenic enzyme assay (Cbz-Phe-Arg-AMC substrate)
Assay type: biochemical, T. b. rhodesiense
details: Cbz-Phe-Arg-AMC 10 µM, pH 5.5, room temperature

# compound, Rhodesain kinac (min⁻¹)
measured = [
    ("COC(=O)/C=C/[C@H](CCc1ccccc1)NC(=O)[C@H](Cc1ccccc1)NCc1ccc([N+](=O)[O-])cc1 [SPR11]", 0.0023),
    ("COC(=O)/C=C/[C@H](CCc1ccccc1)NC(=O)[C@H](Cc1ccccc1)NCc1ccccc1 [SPR10]", 0.0096),
    ("COC(=O)/C=C/[C@H](CCc1ccccc1)NC(=O)[C@H](Cc1ccccc1)NCc1ccc(OC)cc1 [SPR12]", 0.0062),
    ("COC(=O)/C=C/[C@H](CCc1ccccc1)NC(=O)[C@H](Cc1ccccc1)NCc1ccccc1F [SPR13]", 0.0038),
    ("COC(=O)/C=C/[C@H](CCc1ccccc1)NC(=O)[C@H](Cc1ccccc1)NCc1cccc(F)c1 [SPR14]", 0.0043),
    ("COC(=O)C=CC(CCc1ccccc1)NC(=O)C(Cc1ccccc1)NCc1ccc(C(F)(F)F)cc1 (stereo not shown) [SPR19]", 0.0023),
    ("CC(C)C[C@H](NC(=O)[C@H]1O[C@@H]1C(=O)O)C(=O)NCCCCN=C(N)N [E-64, reference compound]", 0.0085),
    ("COC(=O)/C=C/[C@H](CCc1ccccc1)NC(=O)[C@H](Cc1ccccc1)NCc1ccc(F)cc1 [SPR15]", 0.0041),
    ("COC(=O)/C=C/[C@H](CCc1ccccc1)NC(=O)[C@H](Cc1ccccc1)NCc1cc(F)ccc1F [SPR17]", 0.0024),
    ("COC(=O)/C=C/[C@H](CCc1ccccc1)NC(=O)[C@H](Cc1ccccc1)NC(=O)c1ccc(F)cc1 [SPR34]", 0.0050),
    ("COC(=O)/C=C/[C@H](CCc1ccccc1)NC(=O)[C@H](Cc1ccccc1)NCc1ccc(F)cc1F [SPR16]", 0.0014),
    ("COC(=O)/C=C/[C@H](CCc1ccccc1)NC(=O)[C@H](Cc1ccccc1)NCc1c(F)cccc1F [SPR18]", 0.0012),
    ("CC(=O)C=CC(CCc1ccccc1)NC(=O)C(Cc1ccccc1)NC(=O)c1ccc(F)cc1 (stereo not shown) [PS-1]", 0.00094),
]
